- target of assay: human DGKζ (Homo sapiens (Human), UniProt Q13574)
- Sequence (Q13574 other isoform, or with tags, fused parts or gaps): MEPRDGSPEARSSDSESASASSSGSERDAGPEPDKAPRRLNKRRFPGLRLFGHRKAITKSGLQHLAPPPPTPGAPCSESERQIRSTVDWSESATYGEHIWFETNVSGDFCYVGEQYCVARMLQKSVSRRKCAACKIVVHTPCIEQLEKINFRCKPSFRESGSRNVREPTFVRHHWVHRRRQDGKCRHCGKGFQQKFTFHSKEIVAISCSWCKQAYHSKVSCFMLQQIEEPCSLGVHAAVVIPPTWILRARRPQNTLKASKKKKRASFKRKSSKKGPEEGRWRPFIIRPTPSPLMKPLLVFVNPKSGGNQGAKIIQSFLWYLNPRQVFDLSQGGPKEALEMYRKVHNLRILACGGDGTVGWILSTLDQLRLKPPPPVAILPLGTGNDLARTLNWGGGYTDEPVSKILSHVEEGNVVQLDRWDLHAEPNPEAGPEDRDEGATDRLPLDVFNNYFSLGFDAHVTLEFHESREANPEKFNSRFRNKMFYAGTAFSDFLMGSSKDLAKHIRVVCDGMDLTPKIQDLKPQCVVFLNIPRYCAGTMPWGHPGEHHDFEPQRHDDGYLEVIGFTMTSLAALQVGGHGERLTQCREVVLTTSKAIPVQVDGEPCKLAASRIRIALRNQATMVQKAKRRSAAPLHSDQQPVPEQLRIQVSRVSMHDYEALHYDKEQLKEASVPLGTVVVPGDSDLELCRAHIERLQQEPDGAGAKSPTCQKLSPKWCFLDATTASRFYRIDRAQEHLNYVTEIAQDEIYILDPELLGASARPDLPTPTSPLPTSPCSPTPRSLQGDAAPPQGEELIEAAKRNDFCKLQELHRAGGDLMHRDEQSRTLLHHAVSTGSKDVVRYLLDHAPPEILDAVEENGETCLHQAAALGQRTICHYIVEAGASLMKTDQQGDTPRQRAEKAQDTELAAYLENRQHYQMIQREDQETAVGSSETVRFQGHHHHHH
- assay protocol: DGKζ assay (detergent/lipid micelle substrate)
- Assay type: biochemical
- condition context: read-out: DGKζ IC50; detergent/lipid micelle substrate
readout label: IC50

Query (compound): CC(c1ccc(F)cc1)N1CCN(c2c(C#N)c(=O)n(CC3CC3)c3ccc(Br)nc23)CC1 (single isomer, unassigned) ; field requested: IC50
> 240 µM

---

Listed here are molecules together with their documented pIC50.
- target of assay: UniProt:Q13574
- assay protocol: DGKζ LIPGLO assay (extruded liposome substrate)
- Type: biochemical
- condition context: extruded liposome substrate; read-out: DGKζ LIPGLO IC50
Please express pIC50 as -log10 of the molar concentration.

Query (molecule): Cc1ccc2c(n1)c(N1CCN(C(c3ccc(F)cc3)c3ccc(F)cc3)CC1)c(Br)c(=O)n2C ; field requested: pIC50
4.29

---

Listed here are compounds together with their documented IC50.
- target of assay: UniProt P23743
- assay protocol: biochemical
- condition context: detergent/lipid micelle substrate; read-out: DGKα IC50
Just the number in nM, nothing appended.

Query (compound): C=CCOc1cc(F)cc2c1C(N1CCN(c3c(C#N)c(=O)n(C)c4ccc(Cl)nc34)CC1)CC2 (stereo not drawn) ; field requested: IC50
24000

Similarly, Cn1c(=O)c(C#N)c(N2CCN(CC(O)c3ccc(F)cc3)CC2)c2nc(Br)ccc21 (single isomer, unassigned) [Example 29] ?
570

Similarly, CC(c1ccc(F)cc1)N1CCN(c2c([N+](=O)[O-])c(=O)n(C)c3ccc(C#N)nc23)CC1 (single isomer, unassigned) [Example 44] ?
230

---

- target of assay: human DGKζ (Homo sapiens (Human))
- assay protocol: DGKζ LIPGLO assay (extruded liposome substrate)
- Type: biochemical
- condition context: extruded liposome substrate; read-out: DGKζ LIPGLO IC50
Listed here are molecules together with their documented pIC50.
Please express pIC50 as -log10 of the molar concentration.

// worked examples, pIC50 included
molecule="CC(c1ccc(F)cc1)N1CCN(c2c(C#N)c(=O)n(C)c3ccc(Cl)nc23)CC1 (single isomer, unassigned) [Example 387]" target_of_assay="human DGKζ (Homo sapiens (Human))" value_measured=5.80
molecule=Cn1c(=O)c(C#N)c(N2CCN(Cc3cccc4ccccc34)CC2)c2nc(Cl)ccc21 target_of_assay="human DGKζ (Homo sapiens (Human))" value_measured=4.74
molecule="COCCC(C)N1CCN(c2c(C#N)c(=O)n(C)c3ccc(C)nc23)CC1 (centres unmarked)" target_of_assay="human DGKζ (Homo sapiens (Human))" value_measured=3.70
molecule=C#CCn1c(=O)c(C#N)c(N2CCN(Cc3ccc(C)cc3O)CC2)c2nc(Br)ccc21 target_of_assay="human DGKζ (Homo sapiens (Human))" value_measured=5.77
molecule=Cn1c(=O)c(C(=O)C(F)(F)F)c(N2CCN(C(c3ccc(F)cc3)c3ccc(F)cc3)CC2)c2ncccc21 target_of_assay="human DGKζ (Homo sapiens (Human))" value_measured=4.96
molecule="COc1ccccc1C(c1ccc(F)cc1)N1CCN(c2c(C#N)c(=O)n(C)c3ccc(Br)nc23)CC1 (single isomer, unassigned)" target_of_assay="human DGKζ (Homo sapiens (Human))" value_measured=5.49

Query (molecule): Cn1c(=O)c(C#N)c(N2CCN(Cc3ccc(Br)cc3O)CC2)c2nc(C#N)ccc21 ; field requested: pIC50
5.28

Similarly, Cn1c(=O)c(C#N)c(N2CCN(C(c3ccc(F)cc3)c3ccc(F)cc3)CC2)c2nc(C#N)ccc21 ?
5.85

Similarly, C#CCn1c(=O)c([N+](=O)[O-])c(N2CCN(C(c3ccc(F)cc3)c3ccc(F)cc3)CC2)c2nc(C#N)ccc21 ?
7.21

Similarly, Cn1c(=O)c(C#N)c(N2CCN(C(c3ccccc3)c3ccc(F)cc3)CC2)c2nc(Br)ccc21 (racemic) ?
5.52

Similarly, COc1cc(F)ccc1C(c1ccc(F)cc1OC)N1CCN(c2c(C#N)c(=O)n(C)c3ccc(C#N)nc23)CC1 ?
6.02

Similarly, C#CCn1c(=O)c([N+](=O)[O-])c(N2CCN(C(c3ccc(F)cc3)c3ccc(F)cc3OC)CC2)c2nc(C#N)ccc21 (single isomer, unassigned) [Example 127] ?
7.52

Similarly, Cn1c(=O)c(C#N)c(N2CCN(Cc3ccc(F)cc3Cl)CC2)c2nc(Cl)ccc21 ?
4.54

Similarly, Cc1ccc2c(n1)c(N1CCN(Cc3cccc(Cl)c3O)CC1)c(C#N)c(=O)n2C ?
5.03

Similarly, COc1c(F)cccc1CN1CCN(c2c(C#N)c(=O)n(C)c3ccc(Cl)nc23)CC1 ?
5.27

Similarly, Cn1c(=O)c(C#N)c(N2CCN(Cc3cccc(Cl)c3O)CC2)c2nc(Cl)ccc21 ?
5.22

Similarly, COc1ncccc1C(c1ccc(F)cc1)N1CCN(c2c(C#N)c(=O)n(C)c3ccc(C)nc23)CC1 (centres unmarked) ?
4.80

Similarly, Cn1c(=O)c(C#N)c(N2CCN(Cc3ccc(OC(F)(F)F)cc3O)CC2)c2nc(Cl)ccc21 ?
4.57

Similarly, Cn1c(=O)c(C#N)c(N2CCN(Cc3ccc(F)cc3O)CC2)c2nc(Br)ccc21 ?
5.09

Similarly, COc1cc(C#N)ccc1CN1CCN(c2c(C#N)c(=O)n(C)c3ccc(Cl)nc23)CC1 ?
4.57

Similarly, C#CCn1c(=O)c([N+](=O)[O-])c(N2CCN(C(c3ccccc3)c3ccccc3)CC2)c2ncccc21 ?
5.39

---

- target of assay: human DGKζ (Homo sapiens (Human))
- assay protocol: DGKζ assay (detergent/lipid micelle substrate)
- Format: biochemical
- condition context: detergent/lipid micelle substrate; read-out: DGKζ IC50
readout label: IC50 (µM)
Just the number in µM, nothing appended.

// worked examples, IC50 included
molecule="C#CCn1c(=O)c([N+](=O)[O-])c(N2CCN(C(c3ccc(F)cc3)c3ccc(F)cc3OC)CC2)c2nc(C#N)ccc21 (racemic) [Example 126]" value_measured=0.33
molecule=Cc1cccc(O)c1CN1CCN(c2c(C#N)c(=O)n(C)c3ccc(Br)nc23)CC1 value_measured=55
molecule=Cn1c(=O)c(C#N)c(N2CCN(Cc3cc(Cl)cc(Cl)c3O)CC2)c2nc(Br)ccc21 value_measured=160
molecule="C#CCOc1ccccc1C(c1ccc(F)cc1)N1CCN(c2c(C#N)c(=O)n(C)c3ccc(Br)nc23)CC1 (single isomer, unassigned) [Example 7]" value_measured=120
molecule=Cc1cccc(CN2CCN(c3c(C#N)c(=O)n(C)c4ccc(Cl)nc34)CC2)c1 value_measured=150

Let us examine a further case.
Query (molecule): Cn1c(=O)c(C#N)c(N2CCN(Cc3cccc(Br)c3O)CC2)c2nc(Cl)ccc21 ; field requested: IC50
120

---

- target of assay: human DGKζ (Homo sapiens (Human))
- assay protocol: DGKζ assay (detergent/lipid micelle substrate)
- Assay type: biochemical
- condition context: detergent/lipid micelle substrate; read-out: DGKζ IC50
pIC50: −log10 of the molar value.
Each entry gets F if its pIC50 stays under 5, and T if its pIC50 is 5 or above.

Example cases with answers are listed next.
compound="CC(c1ccc(F)cc1)N1CCN(c2c([N+](=O)[O-])c(=O)n(C)c3ccc(C#N)nc23)CC1 (single isomer, unassigned) [Example 45]" class_label=F
compound="Cn1c(=O)c([N+](=O)[O-])c(N2CCN(C(c3ccc(F)cc3)c3ccccc3O)CC2)c2nc(C#N)ccc21 (single isomer, unassigned) [Example 98]" class_label=T
compound="Cn1c(=O)c(C#N)c(N2CCN(Cc3ccccc3F)CC2)c2nc(Br)ccc21 [Example 344]" class_label=F
compound="Cn1c(=O)c(C#N)c(N2CCN(Cc3ccc(Cl)c(O)c3)CC2)c2nc(C#N)ccc21 [Example 332]" class_label=F
compound="CCC(c1ccc(F)cc1)N1CCN(c2c(C#N)c(=O)n(C)c3ccc(Br)nc23)CC1 (racemic) [Example 25]" class_label=F

Now, please, on to the next compound.
Hi, just wondering whether COCCn1c(=O)c([N+](=O)[O-])c(N2CCN(C(c3ccc(F)cc3)c3ccccc3O)CC2)c2nc(C#N)ccc21 (stereo not shown) [Example 145] shows pIC50 of 5 or higher.
T

---

- target of assay: human DGKα (Homo sapiens (Human))
- Sequence (P23743 other isoform, or with tags, fused parts or gaps): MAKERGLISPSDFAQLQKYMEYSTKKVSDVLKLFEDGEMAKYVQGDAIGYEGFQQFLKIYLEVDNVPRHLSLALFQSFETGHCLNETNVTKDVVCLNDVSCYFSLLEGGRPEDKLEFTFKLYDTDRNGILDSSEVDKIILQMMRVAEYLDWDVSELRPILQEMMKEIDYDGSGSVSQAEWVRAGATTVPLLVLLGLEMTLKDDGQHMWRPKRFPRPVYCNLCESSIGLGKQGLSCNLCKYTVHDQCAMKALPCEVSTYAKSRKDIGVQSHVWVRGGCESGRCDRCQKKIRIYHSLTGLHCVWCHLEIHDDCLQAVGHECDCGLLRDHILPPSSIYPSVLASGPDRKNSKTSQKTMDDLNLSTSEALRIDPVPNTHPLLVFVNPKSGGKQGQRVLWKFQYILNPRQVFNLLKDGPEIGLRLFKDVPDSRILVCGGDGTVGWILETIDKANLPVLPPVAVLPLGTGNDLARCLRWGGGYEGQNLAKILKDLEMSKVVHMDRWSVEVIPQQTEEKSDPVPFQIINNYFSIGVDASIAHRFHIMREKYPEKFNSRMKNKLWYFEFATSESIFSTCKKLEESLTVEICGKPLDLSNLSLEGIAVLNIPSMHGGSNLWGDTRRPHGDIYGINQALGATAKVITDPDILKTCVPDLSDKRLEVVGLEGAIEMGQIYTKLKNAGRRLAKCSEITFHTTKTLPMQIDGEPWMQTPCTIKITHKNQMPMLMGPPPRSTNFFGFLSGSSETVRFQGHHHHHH
- assay protocol: biochemical
- condition context: detergent/lipid micelle substrate; read-out: DGKα IC50
Listed here are compounds together with their documented pIC50.
Please express pIC50 as -log10 of the molar concentration.

// worked examples, pIC50 included
compound=Cn1c(=O)c(C#N)c(N2CCN(Cc3ccc(OC(F)(F)F)cc3O)CC2)c2nc(C#N)ccc21 readout_label=pIC50 value_measured=7.47
compound="COc1cc(F)ccc1C(c1ccc(F)cc1)N1CCN(c2c([N+](=O)[O-])c(=O)n(C)c3ccc(Br)nc23)CC1 (single isomer, unassigned) [Example 58]" readout_label=pIC50 value_measured=6.60
compound="Cn1c(=O)c([N+](=O)[O-])c(N2CCN(C(c3ccccc3)c3ccccc3O)CC2)c2nc(Br)ccc21 (single isomer, unassigned) [Example 79]" readout_label=pIC50 value_measured=4.09
compound=Cn1c(=O)c(C#N)c(N2CCN(Cc3ccc(O)cc3)CC2)c2nc(Cl)ccc21 readout_label=pIC50 value_measured=7.16
compound="CC(c1ccc(F)cc1)N1CCN(c2c(C#N)c(=O)n(C)c3ccc(Br)nc23)CC1 (single isomer, unassigned) [Example 23]" readout_label=pIC50 value_measured=6.21

Query (compound): COc1cc(F)ccc1C(c1ccc(F)cc1)N1CCN(c2c([N+](=O)[O-])c(=O)n(C)c3ccc(C#N)nc23)CC1 (single isomer, unassigned) [Example 124] ; field requested: pIC50
6.12
